Entry source: patent US7022716B2

- system_under_test: human β3 adrenergic receptor (Homo sapiens)
- Construct: Full length β3 AR clones (402 amino acids) containing the last 6 amino acids of hβ3-AR are prepared; expressed in transfected cells; host or cells: CHO (Chinese hamster ovary) cells
- Sequence (P13945 whole entry): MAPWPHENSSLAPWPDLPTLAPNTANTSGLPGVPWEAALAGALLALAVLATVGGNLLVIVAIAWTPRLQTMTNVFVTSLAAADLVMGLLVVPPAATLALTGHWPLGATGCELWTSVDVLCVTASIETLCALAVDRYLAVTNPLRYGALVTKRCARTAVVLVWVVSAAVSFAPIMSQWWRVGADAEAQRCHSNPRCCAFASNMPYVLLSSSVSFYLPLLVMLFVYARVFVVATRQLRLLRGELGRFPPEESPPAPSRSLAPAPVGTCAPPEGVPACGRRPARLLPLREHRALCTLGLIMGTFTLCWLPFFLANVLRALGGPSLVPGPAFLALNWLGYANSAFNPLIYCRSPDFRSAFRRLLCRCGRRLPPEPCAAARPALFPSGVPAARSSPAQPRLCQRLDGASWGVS
- test_summary: cAMP (SPA) response in CHO cells transfected with human β3 adrenergic receptor
- Format: cell-based
- Design: key: fraction of maximal isoproterenol (10^-5 M) response
- test_parameters: maximal response relative to maximal response of isoproterenol at 10^-5 M
Entries and their IA(β3)
Write the value as a bare number.

Worked cases, answers included:
>  <molecule>
O=C1NC(=O)C(=Cc2ccc(N3CCC(NC[C@H](O)COc4ccc(O)cc4)CC3)cc2)S1 [Example 76]

>  <IA(β3)>
0.94

$$$$
>  <molecule>
CCOC(=O)Cc1ccc(S(=O)(=O)Nc2ccc(N3CCC(NC[C@H](O)COc4ccc(O)c(NS(C)(=O)=O)c4)CC3)cc2)cc1 [Example 312]

>  <IA(β3)>
1.1

$$$$
>  <molecule>
CCOC(=O)CNC(=O)c1ccc(N2CCC(NC[C@H](O)c3ccc(O)c(NS(C)(=O)=O)c3)CC2)cc1 [Example 196]

>  <IA(β3)>
1.1

$$$$
>  <molecule>
CCCCS(=O)(=O)Nc1ccc(N2CCC(NCC(O)c3ccc(O)c(NS(C)(=O)=O)c3)CC2)cc1 (stereo not shown) [Example 295]

>  <IA(β3)>
0.87

$$$$
>  <molecule>
CS(=O)(=O)Nc1cc([C@@H](O)CNC2CCN(c3ccc(COCC(=O)O)cc3)CC2)ccc1O [Example 185]

>  <IA(β3)>
0.69

$$$$
>  <molecule>
CCCCCCNC(=O)Nc1ccc(S(=O)(=O)Nc2ccc(N3CCC(NC[C@H](O)COc4cccc5[nH]c6ccccc6c45)CC3)cc2)cc1 [Example 290]

>  <IA(β3)>
0.72

$$$$

Q: Dear colleague, please send me the reported IA(β3) for CS(=O)(=O)Nc1cc(C(O)CNC2CCN(c3ccc(CC4NC(=O)NC4=O)cc3)CC2)ccc1O (stereo not shown) [Example 87] when you can.
Ans: 1

Q: Write down IA(β3) measured for item O=S(=O)(Nc1ccc(N2CCC(NC[C@@H](O)c3cccc(O)c3)CC2)cc1)c1cccs1 [Example 357]
Ans: 0.87

Q: Item O=C(CCC1CCCC1)Nc1ccc(N2CCC(NC[C@H](O)COc3cccc4[nH]c(=O)[nH]c34)CC2)cc1 [Example 392] : provide IA(β3)
Ans: 0.9

Q: Indicate its recorded IA(β3); the molecule in question is CCOC(=O)CNC(=O)Nc1ccc(N2CCC(NC[C@H](O)c3ccc(O)c(NS(C)(=O)=O)c3)CC2)cc1 [Example 377]
Ans: 0.66

###

Parameter: melting point. Scope: all listed entries.

>  <smiles_data>
CS(=O)(=O)Nc1cc([C@@H](O)CNC2CCN(c3ccc(C(N)=O)cc3)CC2)ccc1O

>  <obs_value>
> 75 °C (dec.)

$$$$
>  <smiles_data>
COc1ccc(C(=O)Nc2ccc(N3CCC(NC[C@H](O)COc4cccc5[nH]c6ccccc6c45)CC3)cc2)cc1OC

>  <obs_value>
183 to 191 °C

$$$$
>  <smiles_data>
O=C(CCC1CCCC1)Nc1ccc(N2CCC(NC[C@H](O)COc3cccc4[nH]c(=O)[nH]c34)CC2)cc1

>  <obs_value>
140 to 144 °C

$$$$

Q: Read the entry CCCCN(CC(=O)OCC)C(=O)c1ccc(N2CCC(NC[C@H](O)c3ccc(O)c(NS(C)(=O)=O)c3)CC2)cc1 and write its reported melting point.
Ans: > 60 °C (dec.)

Q: Dear colleague, please send me the reported melting point for O=C1NC(=O)C(=Cc2ccc(N3CCC(NC[C@H](O)COc4ccccc4)CC3)cc2)S1 when you can.
Ans: 208 to 210 °C
